Target: T1, DDE
T1 chain 1: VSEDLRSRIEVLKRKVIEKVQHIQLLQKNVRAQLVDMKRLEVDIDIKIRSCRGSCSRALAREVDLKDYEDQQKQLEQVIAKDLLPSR
T1 chain 2: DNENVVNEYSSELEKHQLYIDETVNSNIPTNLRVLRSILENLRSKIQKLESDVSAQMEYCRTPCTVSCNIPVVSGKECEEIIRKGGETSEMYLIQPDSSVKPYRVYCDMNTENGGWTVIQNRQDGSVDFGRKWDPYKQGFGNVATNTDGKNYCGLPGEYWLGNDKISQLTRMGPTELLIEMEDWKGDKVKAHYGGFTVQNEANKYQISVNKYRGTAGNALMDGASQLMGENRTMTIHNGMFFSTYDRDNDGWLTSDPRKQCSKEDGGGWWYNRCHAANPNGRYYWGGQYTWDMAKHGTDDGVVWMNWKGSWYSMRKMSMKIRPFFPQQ
T1 chain 3: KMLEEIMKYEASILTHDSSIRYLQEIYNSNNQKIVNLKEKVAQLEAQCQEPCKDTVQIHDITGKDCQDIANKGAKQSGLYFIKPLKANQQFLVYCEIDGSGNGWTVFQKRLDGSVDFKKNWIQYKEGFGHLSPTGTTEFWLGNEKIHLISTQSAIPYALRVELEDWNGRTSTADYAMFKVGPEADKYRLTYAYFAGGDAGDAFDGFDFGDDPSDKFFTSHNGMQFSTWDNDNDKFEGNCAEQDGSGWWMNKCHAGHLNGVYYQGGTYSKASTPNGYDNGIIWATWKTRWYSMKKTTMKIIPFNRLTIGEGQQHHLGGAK
T1 chain 4: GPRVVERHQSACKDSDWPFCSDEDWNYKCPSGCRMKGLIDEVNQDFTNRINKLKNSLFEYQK
T1 chain 5: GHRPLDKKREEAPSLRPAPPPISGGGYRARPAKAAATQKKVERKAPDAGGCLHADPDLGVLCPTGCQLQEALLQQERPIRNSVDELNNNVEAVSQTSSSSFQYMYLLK
T1 chain 6: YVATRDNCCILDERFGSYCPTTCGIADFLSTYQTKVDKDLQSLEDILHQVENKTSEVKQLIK
Assay: direct binding fluorescence polarization: CF5-labeled peptide titrated with DDE; n = 2
Bridge positions count the residues as written; N and C are the ends. Square brackets hold non-standard residues; d marks the D form. Primed or numbered codes have the meaning given here. CF5″ = 5-carboxyfluorescein label; Cha = N[C@@H](CC1CCCCC1)C(=O)O; CF5 = 5-carboxyfluorescein; AEEA = NCCOCCOCC(=O)O
quantity.kind: Kd (nM)
Kindly answer with a numeric value in nM, unit omitted.

>>> df
                                     binder  value_measured
0  Ac-WQPCPAESWT[Cha]CWDPGGGK(CF5)-NH2 (disulfide 4-12, also called Ac-WQPC*PAESWT-Cha-C*WDPGGGK(CF5)-NH2) [Seq042-CF5]             170
1  Ac-KKGWQPCPWESWTFCWDPGGGK(CF5)-NH2 (disulfide 7-15) [Seq025-CF5]             710
2  Ac-GWQPCPWESWTFCWDPGGGK(CF5)-NH2 (disulfide 5-13) [Seq016-CF5]             230

Let's switch to this binder now.
# binder Ac-SGSG[AEEA]WQPCPWESWTFCWDPGGGK(CF5″)-NH2 (disulfide 9-17) [Seq017-CF5] ; its Kd = 450
